Provenance of the data: PubChem BioAssay (NCI)

# System: TK-10 renal
# experimentNotes: NCI-60 one-dose screen, 48 h (100 = growth as untreated, 0 = no growth, -100 = all killed)
# settings: 10 µM unless noted
Compounds without any hit were thinned out: in the full panel of roughly 83,000, 20% have a hit.
Quick reference for growth among some molecules
Quick reminder: number only, in %, skip the unit.

// known answers, use as guide
CCN(CC)CCNCC(O)Cc1ccc(OC)cc1 (stereo unspecified): 88
O=C(c1ccccc1)[C@H]1[C@@H]2CCCN2[C@]2(C(=O)Nc3ccc(F)cc32)[C@]12C(=O)Nc1ccccc12: 113
NC(N)=N/N=C/c1ccc([N+](=O)[O-])cc1: 112

Value sought: growth, system TK-10 renal, item Cc1ccc(NC(=O)CN2CCOCC2)cc1Cl . Result: 95.6

Item C[C@@H]1CC2C3C[C@H](F)C4=CC(=O)C=C[C@]4(C)[C@@]3(F)[C@@H](O)C[C@]2(C)[C@@]1(O)C(=O)CO (stereo partly specified) was tested on TK-10 renal; the reported growth is 102

# O=C(O)c1cn(C2CC2)c2cc(N3CCN(C(=O)CSc4nc(NS(=O)(=O)c5ccccc5)cc(=O)[nH]4)CC3)c(F)cc2c1=O with TK-10 renal: growth is 118

So the reported growth for COc1ccc2c(c1)OC(N)=C(C#N)C2c1ccc(F)cc1 (stereo unspecified) , on TK-10 renal, turned out to be 69.5

Record Cc1cccc(NCS(=O)(=O)O)c1 ; system TK-10 renal; growth = 98.5

# growth measured on TK-10 renal for item Clc1ccc(OCc2nc(-c3ccccc3)n[nH]2)c(Cl)c1 = 122

Noted growth for CNC(=O)NN , tested on TK-10 renal: 111

Value sought: growth, system TK-10 renal, item COc1cc(-c2nc3ccccc3s2)ccc1OCc1nc2n(n1)S(=O)(=O)c1ccccc1N2C . Result: 87.8
